biological target: UniProt:Q9NR96; test: HEK293-Blue-hTLR-9 cells assay; details: HEK293-Blue-hTLR9 cells, ODN2006 stimulation, 20 hrs, SEAP reporter; read-out: HEK/hTLR9 IC50
Sequence (Q9NR96 26-1032): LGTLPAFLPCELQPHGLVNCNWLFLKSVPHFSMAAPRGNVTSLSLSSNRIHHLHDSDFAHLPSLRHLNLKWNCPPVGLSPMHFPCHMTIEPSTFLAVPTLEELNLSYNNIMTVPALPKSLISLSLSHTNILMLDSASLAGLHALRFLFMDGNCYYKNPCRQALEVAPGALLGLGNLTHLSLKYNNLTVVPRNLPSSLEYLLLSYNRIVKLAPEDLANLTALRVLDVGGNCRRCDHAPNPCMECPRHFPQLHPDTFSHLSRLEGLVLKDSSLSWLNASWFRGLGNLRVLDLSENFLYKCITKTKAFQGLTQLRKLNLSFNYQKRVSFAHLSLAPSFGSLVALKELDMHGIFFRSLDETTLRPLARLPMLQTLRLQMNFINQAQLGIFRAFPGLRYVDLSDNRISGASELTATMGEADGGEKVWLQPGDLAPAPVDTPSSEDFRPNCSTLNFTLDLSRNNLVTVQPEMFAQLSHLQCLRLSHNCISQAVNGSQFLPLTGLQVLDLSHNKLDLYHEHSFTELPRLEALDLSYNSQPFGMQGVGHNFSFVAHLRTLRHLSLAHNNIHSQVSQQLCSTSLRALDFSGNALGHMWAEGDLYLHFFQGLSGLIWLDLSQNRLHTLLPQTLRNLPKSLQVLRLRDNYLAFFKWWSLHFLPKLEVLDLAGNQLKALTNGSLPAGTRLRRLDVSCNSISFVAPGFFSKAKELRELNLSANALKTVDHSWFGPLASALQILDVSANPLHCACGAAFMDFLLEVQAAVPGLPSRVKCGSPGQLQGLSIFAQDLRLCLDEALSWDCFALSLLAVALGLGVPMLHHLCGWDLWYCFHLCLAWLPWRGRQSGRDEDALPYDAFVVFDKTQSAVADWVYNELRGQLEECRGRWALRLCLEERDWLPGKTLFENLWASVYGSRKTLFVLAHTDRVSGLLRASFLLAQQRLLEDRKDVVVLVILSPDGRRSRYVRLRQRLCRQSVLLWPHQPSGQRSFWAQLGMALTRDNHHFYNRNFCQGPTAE
Could you mark each record criterion met if its IC50 falls strictly under 0.04 µM, and criterion not met if it equals or exceeds it?

• Cc1nc(N2CCNC[C@@H]2C)ccc1CN1CCN2[C@@H](C1)CN(c1ccc(C#N)c3ncccc13)C[C@H]2C = criterion not met
• [2H]c1ccc2c(N3C[C@@H]4CN(Cc5ccc(N6CC7CC(C6)N7)nc5C)CCN4[C@H](C)C3)ccc(C#N)c2n1 = criterion met
• [2H]c1ccc2c(N3C[C@@H]4CN(c5ccc6c(n5)CCNC6)CCN4[C@@H](C)C3)ccc(C#N)c2n1 = criterion not met
• C[C@@H]1CN(c2ccc(C#N)c3ncccc23)C[C@@H]2CN(c3ccnc(N4CCOC[C@H](N)C4)c3)CCN21 = criterion not met
• Cc1cc(N2CC3(CN(C)C3)C2)cnc1N1CCN2[C@@H](C1)CN(c1cc(=O)n(C)c3ncccc13)C[C@@H]2C = criterion not met
• Cc1cc(N2CCNCC2)ncc1N1CCN2CCN(c3ccc(C#N)c4ncccc34)CC2C1 (stereo not shown) = criterion not met

----------
biological target: hERG channel (Homo sapiens); construct: expressed in transfected cells; host or cells: CHO (Chinese hamster ovary), CHOhERG; experiment: hERG channel inhibition assay (patch-clamp, CHOhERG cells); assay type: cell-based; conditions: safety ratio
Sequence (Q12809 whole entry): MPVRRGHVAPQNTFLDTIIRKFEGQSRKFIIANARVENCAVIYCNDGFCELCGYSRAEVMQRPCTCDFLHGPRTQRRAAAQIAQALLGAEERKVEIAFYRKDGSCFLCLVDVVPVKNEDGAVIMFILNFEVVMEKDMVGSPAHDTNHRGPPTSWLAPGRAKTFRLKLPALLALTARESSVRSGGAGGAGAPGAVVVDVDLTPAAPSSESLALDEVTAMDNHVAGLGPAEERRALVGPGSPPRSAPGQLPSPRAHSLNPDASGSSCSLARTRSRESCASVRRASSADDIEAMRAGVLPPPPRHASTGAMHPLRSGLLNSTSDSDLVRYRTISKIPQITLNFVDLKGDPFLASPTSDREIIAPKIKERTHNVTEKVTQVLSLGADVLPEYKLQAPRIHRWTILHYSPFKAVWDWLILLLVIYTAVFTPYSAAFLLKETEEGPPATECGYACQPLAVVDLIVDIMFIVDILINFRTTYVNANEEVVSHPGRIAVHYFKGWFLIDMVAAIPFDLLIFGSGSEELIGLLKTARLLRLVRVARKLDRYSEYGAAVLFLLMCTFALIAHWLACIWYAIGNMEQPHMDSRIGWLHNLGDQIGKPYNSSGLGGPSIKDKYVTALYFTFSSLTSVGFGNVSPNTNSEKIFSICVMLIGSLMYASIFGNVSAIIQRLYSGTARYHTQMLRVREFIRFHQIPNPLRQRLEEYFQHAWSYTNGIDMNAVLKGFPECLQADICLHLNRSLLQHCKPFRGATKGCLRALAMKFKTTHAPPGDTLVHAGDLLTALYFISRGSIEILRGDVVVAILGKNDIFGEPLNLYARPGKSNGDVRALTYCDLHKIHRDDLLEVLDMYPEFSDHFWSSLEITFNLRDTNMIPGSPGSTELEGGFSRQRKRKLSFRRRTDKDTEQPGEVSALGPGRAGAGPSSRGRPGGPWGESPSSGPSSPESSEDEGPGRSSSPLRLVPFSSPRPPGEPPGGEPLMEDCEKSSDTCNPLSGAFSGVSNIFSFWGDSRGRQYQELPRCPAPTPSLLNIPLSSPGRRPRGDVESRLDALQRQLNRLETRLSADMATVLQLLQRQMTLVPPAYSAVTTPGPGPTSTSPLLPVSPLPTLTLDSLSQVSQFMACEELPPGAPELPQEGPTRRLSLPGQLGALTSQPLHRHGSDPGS
Each entry below lists one item and its recorded hERG IC20/TLR9 IC50 value.
attributeMeasured: hERG IC20/TLR9 IC50

- C[C@@H]1CN(c2ccc(C#N)c3ncccc23)C[C@@H]2CN(c3cccc4c3CNC4)CCN21: 65
- C[C@@H]1CN(c2ccc(C#N)c3ncccc23)C[C@@H]2CN(c3nccc(N4CCNCC4)n3)CCN21: 63

----------
biological target: hERG channel (Homo sapiens); construct: expressed in transfected cells; host or cells: CHO (Chinese hamster ovary), CHOhERG; experiment: hERG channel inhibition assay (patch-clamp, CHOhERG cells); type: cell-based; details: safety ratio
attributeMeasured: hERG IC20/TLR9 IC50

• Cc1cc(N2CC3(CN(C)C3)C2)cnc1N1CCN2[C@@H](C1)CN(c1cc(=O)n(C)c3ncccc13)C[C@@H]2C = >79
• CO[C@@H]1CN(c2nc(C)cc(N3CCN4[C@@H](C3)CN(c3ccc(C#N)c5ncccc35)C[C@H]4C)n2)C[C@H]1N = >124
• Cc1cc(N2CCN3[C@@H](C2)CN(c2ccc(C#N)c4ncccc24)C[C@H]3C)nc(N2CC(C)(N)C2)n1 = >209
• CO[C@@H]1CN(c2ccc(CCN3CCN4[C@@H](C3)CN(c3ccc(C#N)c5ncccc35)C[C@H]4C)cn2)C[C@H]1N = >213

----------
biological target: human TLR8 (Homo sapiens)
Sequence (Q9NR97 27-1041): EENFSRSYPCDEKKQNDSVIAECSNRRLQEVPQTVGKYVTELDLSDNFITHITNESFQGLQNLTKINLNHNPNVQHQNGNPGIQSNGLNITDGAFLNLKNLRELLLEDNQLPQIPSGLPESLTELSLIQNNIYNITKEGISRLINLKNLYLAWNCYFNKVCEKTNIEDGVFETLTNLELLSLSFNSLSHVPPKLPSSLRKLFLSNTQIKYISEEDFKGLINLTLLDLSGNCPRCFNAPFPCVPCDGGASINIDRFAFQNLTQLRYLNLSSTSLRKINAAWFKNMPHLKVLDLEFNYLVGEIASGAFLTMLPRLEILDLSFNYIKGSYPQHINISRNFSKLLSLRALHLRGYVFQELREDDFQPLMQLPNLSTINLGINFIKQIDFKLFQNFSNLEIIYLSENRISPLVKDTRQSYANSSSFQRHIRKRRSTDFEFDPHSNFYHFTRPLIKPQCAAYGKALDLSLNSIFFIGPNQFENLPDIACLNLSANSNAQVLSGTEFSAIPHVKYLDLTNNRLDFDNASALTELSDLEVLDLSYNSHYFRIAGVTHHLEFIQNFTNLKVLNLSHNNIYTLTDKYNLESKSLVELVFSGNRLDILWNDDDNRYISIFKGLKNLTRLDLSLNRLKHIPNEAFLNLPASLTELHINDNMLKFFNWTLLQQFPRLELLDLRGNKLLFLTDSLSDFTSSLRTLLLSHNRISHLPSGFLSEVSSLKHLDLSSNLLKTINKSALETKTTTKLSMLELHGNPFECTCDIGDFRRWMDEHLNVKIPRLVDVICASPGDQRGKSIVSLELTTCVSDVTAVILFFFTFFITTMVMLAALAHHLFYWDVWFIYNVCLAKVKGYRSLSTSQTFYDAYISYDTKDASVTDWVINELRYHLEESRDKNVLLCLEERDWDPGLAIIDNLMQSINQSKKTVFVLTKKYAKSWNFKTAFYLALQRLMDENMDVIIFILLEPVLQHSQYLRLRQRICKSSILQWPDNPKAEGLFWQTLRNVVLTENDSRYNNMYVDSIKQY
pIC50: −log10 of the molar value.
Each entry below lists one item and its recorded pIC50 value.
attributeMeasured: pIC50

- CO[C@@H]1CN(c2ccnc(N3CCN4[C@@H](C3)CN(c3ccc(C#N)c5ncccc35)C[C@H]4C)n2)C[C@H]1N [Example 37]: 7.59
- Cc1cc(N2CCNCC2)ncc1N1CCN2CCN(c3ccc(C#N)c4ncccc34)CC2C1 (stereo not shown) [Example 38]: 8.10
- C[C@@H]1CN(c2ccc(C#N)c3ncccc23)C[C@@H]2CN(c3nccc4c3CCNC4)CCN21 [Example 16]: 8.05
- [2H]c1ccc2c(N3C[C@@H]4CN(c5ccc(CCN6C[C@H](OC)[C@@H](N)C6)cn5)CCN4[C@@H](C)C3)ccc(C#N)c2n1 [Example 122]: 8.52
